# Tested on: MS2 coat protein
# method-summary: apparent KD of MS2 coat protein; designed switch direction (-1 OFF switch, 1 ON switch): 1; higher = weaker reporter binding
# measurement-conditions: input ligand: microRNA oligo, concentration not stated
Entries and their measured apparent KD of MS2 coat protein follow.

| residue-codes | apparent KD of MS2 coat protein (nM) |
| --- | --- |
| ACAUGAGACGGAGGAUAUGUUGUACCUACAUGUGACAUGAGGAUCACCCAUGUGGUAAGUAUGAUACAGAAGGCCGAGAUAUGU [Equivalance 58 - Jieux - Same State NG 2] (Eterna round: R96, puzzle: Same State NG 2) | 13.2 |
| GGUGCGAAUAAAGCCUACAUGAGGAUCACCCAUGUAUGUAGGCAGGAUAUCGUUUGCUUUGCAAACGAGAAGGGCUGACGCACC [JL SSNG3 1.17] (Eterna round: R96, puzzle: Same State NG 3) | 37.7 |
| CCAAAGUACAAUUUAGAUCUACAUGAGGAUCACCCAUGUACUGAGGAUAUCAGCUCGUUUAGAGCUGAGAAGGCAGAAUUAAUU [SSNG3/4-A3] (Eterna round: R96, puzzle: Same State NG 3) | 111 |
| CUGAGCAAUCAAGGAUAUCACGUCGAUUAGACGUGAGAAGGUGAUCAUUACAUGAGGAUCACCCAUGUAUUACAUGGAGCUCAG [Brourd's SSNG1/1-A2 mod 2] (Eterna round: R96, puzzle: Same State NG 1) | 833 |
| AAAAUACAUGAGGAUCACCCAUGUGAAAAUAUGGGAGGAUAUACCGAAAAAAAAAAAAAGGUAGAAGGCCCAAAAA [SS! 1 MT 5] (Eterna round: R96, puzzle: Same State 1) | 31 |
| GGAGCCGGCCUAGGAUAUUUCAUAUAAAUACAUGAGGAUCACCCAUGUAGGCCAGAAGGCCUUGGGAAGAAGGAGGUCGGCUCC [Loop Effect - U25,U29] (Eterna round: R96, puzzle: Same State NG 2) | 20.4 |
| AACAAGCACAUGAGGAUCACCCAUGUGAGAAUAAAACCCUCAUAGGAUAUCCGCGGUUAACUCCCGGAGAAGGGUGAGACUCCU [Edtiedus] (Eterna round: R96, puzzle: Same State NG 3) | 429 |
| CUGAGCAAUCUAGGAUAUCACGUCGAAUAGACGUGAGAAGGAGAUCAUAACAUGAGGAUCACCCAUGUAUUACAUGAAGCUCAG [SSNG1/7-A1] (Eterna round: R96, puzzle: Same State NG 1) | 11.6 |
| AGAUCAUGACGAGGAUAUGCGACAUGAGGAUCACCCAUGUAUGUUGCAGGACGCGUACGUCCAAUGUAGAAGGCGUCGUGGUCA [JL SSNG2 1.05] (Eterna round: R96, puzzle: Same State NG 2) | 65.1 |

* * *

# Test system: K4 kissing-loop RNA reporter
# method-summary: apparent KD of K4 kissing-loop reporter; higher = weaker reporter binding
# measurement-conditions: Eterna round: R107; input ligand: arginine 13.2 mM
assay-metric: apparent KD of K4 kissing-loop reporter (µM)

| residue-codes | assay-metric | observed-value |
| --- | --- | --- |
| CAUAUCAGAUAAGGAUAUAUGGCUCCUCGAGUCCAGUGAUGUUGGGCAACGUUUCAGUGGUGGAUUAUAGAAGGUAUUCACAGAC [theeternabot_sameState_KL_FMN_B_9] | apparent KD of K4 kissing-loop reporter | 0.25 |
| CUCAGAAAGACUGUCCAAGUGAUGUUUGGACGAGGACCGGUACGGCCGCCACUCGCUGUUGCGAAUGUUAAGGUACGAGUCGCGG [theeternabot_exclusion_KL_Trp_A_30] | apparent KD of K4 kissing-loop reporter | 0.0897 |
| AGACUACCACACUGUCAAUAGACAGUGUACUAGGAUAUGCUGAUAAGCAGAAGGAGUGAUGUUCCUGGGUAGUCAAUAAAAUAAU [FmnAX 13 U28+G67] | apparent KD of K4 kissing-loop reporter | 0.388 |

* * *

# Test system: MS2 coat protein
# method-summary: apparent KD of MS2 coat protein; higher = weaker reporter binding
# measurement-conditions: Eterna round: R107; input ligand: theophylline 2 mM
Entries and their measured apparent KD of MS2 coat protein follow.
assay-metric: apparent KD of MS2 coat protein (µM)

| residue-codes | observed-value |
| --- | --- |
| AGCCACUCGAGUGAUCCUCACGAGUGGCAACGAGGACCGGUACGGCCGCCACUCGAAUCAACAUGAGGAUCACCCAUGUAAUAAU [Brourdmod01] | 0.0823 |
| CUACAUUUGUAGAAACCGGUCAACAAUAAUCGAGGACCGGUACGGCCGCCACUCGUAUAAUUUAAUACAUGAGGAUCACCCAUGU [Tryptophan A 1] | 0.0194 |
| GGUCUCUGGAGCGAUACCAGCUUGAUCGUACUAGCCAGGUACAUGAGGAUCACCCAUGUAAGCCCUUGGCAGCGCUCCAGAGACC [#1 Exclusion - Theophylline B Attempt #9 (HarryS)] | 0.0223 |
| AUAACUGUAAUAAACCGCAGGCUAGUGGAAGGAGCGCGGAAUAACGCAGGUAGGUCGCCACAAACAUGAGGAUCACCCAUGUGGC [SSAA NP+V+V2 #6] | 0.0207 |
| UGUAUGGACUGAAGGAGCGCCUCAAAAUAACUUGAGGAUCACCCAGGUAAGGCGAAAGCCGGGCAGGUAGGUCGCAGUCCAUACU [ArgBX 3] | 0.0723 |
| AGCGCAUCCGUAUAGGAUGCGCUCCAUGAAGGAGCGCGGGAAACCGCAGGUAGGUCGCGUGACAUGAGGAUCACCCAUGUGUAUU [#17 Same State - Arginine A] | 0.0228 |
| GGCACAUAGUCGGCCGCCACUAGAUUUUAGUGGAAUAACAUGAGGAUCACCCAUGUAUUUGGGACUAGGACCGGGACUAUGUGCC [Hyena] | 0.038 |
| AGAGCAUUGACGGCCGCCACUCAUGUCACAUGAGGAUCACCCAUGUGAUGGGUGAUAGCCCGGUUGAGGACCGGGUCAAUGCUCA [Omei Tryp SS B v1] | 0.0204 |
| GGUCUCGCGGGCGAUACCAGCUUGAUCGUACUGGCCUGGUACAUGAGGAUCACCCAUGUAAGCCCUUGGCAGCGCGCGCGAGACC [#1 Exclusion - Theophylline B Attempt #5 (HarryS)] | 0.0321 |
| AGAGCAUUGACGGCCGCCACUCAUGUCACAUGAGGAUCACCCAUGUGAUGGGUAAUUGCCCGGUUGAGGACCGGGUCAAUGCUCA [Omei Tryp SS B v4] | 0.0101 |
| AUAACAUGAGGAUCACCCAUGUAAGCUGAAGGAGCGCUGGAAACAGCAGGUAGGUCGCAGCGGCGACCUUCAUGGGUAAGGUCGC [(M1)-(M2)-(Arg1)-(Arg2)-(A)'-(M)'-(A)''_Design4] | 0.0405 |

* * *

# Tested on: K4 kissing-loop RNA reporter;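 also: bound reporter read as fluorescence of individual clusters on recovered sequencing chips by microscopy, with normalized cluster intensities fitted with a binding model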
# method-summary: apparent KD of K4 kissing-loop reporter; higher = weaker reporter binding
# measurement-conditions: Eterna round: R107; input ligand: tryptophan 2.4 mM
assay-metric: apparent KD of K4 kissing-loop reporter (nM)

| residue-codes | assay-metric | observed-value |
| --- | --- | --- |
| UCUGGAGUAUAUGAUACCAGCAGUGAGAGACAGGAAGUAUAGUGAUGUUAUAUGAGAGAAUGCCCUUGGCAGCGUGUGCGGUGGG [SSTheophylB.R] | apparent KD of K4 kissing-loop reporter | 62.7 |
| AACUUAAUUUAUAAGCAGUGAUGUUGCUUACGAGGACCGGUACGGCCGCCACUCGAUCGCAUUUAUGUCUUCAAUUAAUUCAUUA [JR_ExcTryptoA_Sub016] | apparent KD of K4 kissing-loop reporter | 195 |
| UAUACGCUAGUGAUGUUGGCGAAGACUGAAGGAGCGUGCGAGAGUACAGGUAGGUCGCAGUCAGACAGAUUGUACCUGUCUUAUG [Arg A SS t10] | apparent KD of K4 kissing-loop reporter | 356 |
| ACACAGAGUUGCCGAGUGAUGUUCGGCUUACGAGGACCGGUACGGCCGCCACUCGUUACUCUGUGUUUUGGACACCAAGGCGUCG [Tionzaanon] | apparent KD of K4 kissing-loop reporter | 201 |
| GCAGUGAUGUUGCGCAUGUACAGUGGAGUGCGAGGACCGGUACGGCCGCCACUCGUACAGAACAAGCUAAUAUAUGGAUAGGUGA [IX] | apparent KD of K4 kissing-loop reporter | 306 |
| CAUACGCAUGGAGGAUAUGGGAUUACUCAUAUUACCCUGUAACAGGUAUCUCAGUGAUGUUGAGACUCAGAAGGCCAUGUGUAUG [Ex FMN B 23] | apparent KD of K4 kissing-loop reporter | 344 |

Value source: the supplement of paper PMC9170038
